biological target: human alpha-synuclein oligomers (human, UniProt P37840 1-140); experiment: competition ELISA: oligomers titrated in solution against 0.6 nM antibody, free antibody read on aSyn-coated plate
Assign IC50 to each entry below.
Give the value in nM but do not write nM after it.

Q: What measured IC50 goes with 20H4 (antibody, rat IgG2b, V domains shown, also called clone 20H4; rat 20H4) VH: AVQLVESGGGLVQPKESLKISCAASGFTFSNAAMYWVRQAPGKGLELLARIRTKPNNYATYHADSVKGRFTISRDDSQSMVYLHMGNLKTEDTAMYYCTADMATGDYWGPGVMVTVSS VL: DIQMTQSPPVLSVSVGDRVTLSCKASQNINKNLDWYQQKHGEAPKPLIYSTNNLQTGVPSRFSGSGSGTDYTLTISSLQPEDVATYYCYQYKSAWTFGGGTKLELR ?
A: 5.38

Q: Follow-up entry: 22E11 (antibody, IgG1, V domains shown, also called clone 22E11) VH: AVQLVESGGGLVQPKESLKISCAASGFTFSTAAMYWVRQAPGKGLEWVTRIRTKPNNYATYYADSVKGRFTISRDDSKSMVYLQMDNLKTEDTAMYYCTADYYDGTPFAYWGQGTLVTVSS VL: AVVMTQTPVSLSVSLGGQVSISCRSSQSLVHNNGITYLSWYLQKPGQSPQLPIYKVSNRFSGFSDRFSGGGSGTDFTLKISRVEPDDLGLYYCGQGTQYPYTFGAGTKLELK
A: 6.96
